- System: HCT-116 colon
- method: NCI tumour cell line growth inhibition, 48 h; in the data active = GI50 below about 0.43 µM; inactive = the rest
Outcomes you can answer with include only these: yes = active, no = inactive

Recorded results for 5 compounds are shown here.
C/C(=N\Nc1ccc(Cl)cn1)c1ccc2ccccc2n1
no
O=c1cc(NCC(O)CN2CCCC2)n(Cc2ccccc2)c(=O)n1Cc1ccccc1 (configuration not stated)
no
COc1ccc(C(=O)c2cc(C)c(OC)c(C)c2)c(OC)c1O
yes
CCCC(CCC)NCC(O)c1cc(-c2ccc(C(F)(F)F)cc2)nc(C(F)(F)F)c1 (configuration not stated)
no
CCCCC(CC)COC(=O)C[N+](C)(C)CCOC(c1ccccc1)c1ccccc1 (configuration not stated)
no

Identify the outcome logged in this assay for the compound shown: "C=CCCCCC/C=C\[C@@H](O)C#CC#C/C=C/CO"
no

Identify the outcome logged in this assay for the compound shown: "NC(=O)c1cc(Cl)ccc1NC(=O)/C=C/c1ccccc1"
no

Identify the outcome logged in this assay for the compound shown: "COc1c(C(=O)/C=C/c2ccccc2)c(O)cc2occc12"
no

Identify the outcome logged in this assay for the compound shown: "COC(=O)Nc1nc2ccc(C3(c4ccc(F)cc4)OCCO3)cc2[nH]1"
yes

Identify the outcome logged in this assay for the compound shown: "CC1(C)C(=O)/C(=C\c2cccnc2)C[C@]2(C)[C@H]3CC[C@@H]4[C@H]5[C@H](C(=O)/C=C/c6cccnc6)CC[C@]5(C(=O)O)CC[C@@]4(C)[C@]3(C)CC[C@@H]12"
no

Identify the outcome logged in this assay for the compound shown: "CCc1nc2cc(F)c(/C=C/C(=O)NO)cc2c(=O)n1CCc1ccccc1"
yes

Identify the outcome logged in this assay for the compound shown: "CCNCCNc1cc(-c2ccc(C(F)(F)F)cc2)c(C#N)c2nc3ccccc3n12"
yes

###

- Tested on: CCRF-CEM leukemia
- method: NCI tumour cell line growth inhibition, 48 h; in the data active = GI50 below about 0.43 µM; inactive = the rest
Outcomes you can answer with include only these: T for active, F for inactive

Identify the outcome logged in this assay for the molecule shown: "Nc1nc(Nc2cccnc2)sc1C(=O)c1ccccc1F"
F

Identify the outcome logged in this assay for the molecule shown: "COCC[C@H]1CCC/C=C/[C@@H]2C[C@H](O)C[C@H]2[C@H](O)/C=C/C(=O)O1"
T

Identify the outcome logged in this assay for the molecule shown: "C=C1C(=O)O[C@H]2[C@H]1CC/C(COC(=O)NCCCCNC(=O)OC/C1=C/CC[C@@]3(C)O[C@H]3[C@H]3OC(=O)C(=C)[C@@H]3CC1)=C\CC[C@@]1(C)O[C@@H]21"
T

Identify the outcome logged in this assay for the molecule shown: "COc1cc2c3c(n(CCCN)c(=O)c2cc1OC)-c1ccc(C#N)cc1C3=O"
F

Identify the outcome logged in this assay for the molecule shown: "CCOC(=O)C1CCN(S(=O)(=O)/N=C2/NC(=O)NC2=C(Cl)Cl)CC1"
F

Identify the outcome logged in this assay for the molecule shown: "c1ccc(Sc2ccc(Cc3nc4cc5ccccc5cc4[nH]3)cc2)cc1"
F

Identify the outcome logged in this assay for the molecule shown: "C/C(=N\Nc1ccc(Cl)cn1)c1ccc2ccccc2n1"
F

###

- Tested on: RXF 393 renal
- method: NCI tumour cell line growth inhibition, 48 h
value_kind: TGI (µM)
Write down the numeric answer in µM and omit the unit.

These recorded examples may help you get a feel for the data.
Oc1c(N2CCOCC2)cc(-c2cc(N3CCOCC3)c(O)c3ccccc23)c2ccccc12
6.03
Cc1nnc(NS(=O)(=O)c2ccc(N=Nc3cc(N=Nc4ccc(S(=O)(=O)Nc5nnc(C)s5)cc4)c4c(NC(=O)C(Cl)Cl)cccc4c3OC(=O)C(Cl)Cl)cc2)s1 (tested in a mixture with another compound)
55.9
CCCCC(CC)COC(=O)C[N+](C)(C)CCOC(c1ccccc1)c1ccccc1 (stereo not given)
3.34
CN1CCN(CCCNc2nc3ccc(Oc4ccc(NC(=O)Nc5cc(C(F)(F)F)ccc5F)cc4)cc3[nH]2)CC1
9.17

Item: "COC(=O)c1cc2c(cc1Cl)Sc1nnc(Nc3ccc(C)cc3)n1S2(=O)=O" | TGI: 13.2
